A collection of compounds and their measured TGI
tested on: DU-145 prostate; assay: NCI tumour cell line growth inhibition, 48 h
Reported endpoint: TGI (µM)

[[record]]
compound = "COC(=S)OC1CC(n2cnc3c(N)ncnc32)OC1CO[Si](C)(C)C(C)(C)C (centres undefined)"
target_or_system = "DU-145 prostate"
sign_qualifier = "="
measurement = 38.5

[[record]]
compound = "COc1ccc(N=Nc2ccc3oc(=O)c(C(=O)Nc4ccc(Cl)cc4)cc3c2)cc1"
target_or_system = "DU-145 prostate"
sign_qualifier = ">"
measurement = 10

[[record]]
compound = "Cc1cc(C)cc(Nc2ccc([N+](=O)[O-])c(NCCN3CCOCC3)n2)c1"
target_or_system = "DU-145 prostate"
sign_qualifier = ">"
measurement = 100

[[record]]
compound = "O=S(=O)(O)c1cc(N=[N+]([O-])c2cc(S(=O)(=O)O)c3ccccc3c2)cc2ccccc12"
target_or_system = "DU-145 prostate"
sign_qualifier = "="
measurement = 40.1

[[record]]
compound = "CNC(=O)OC1C(O[C@H]2C[C@H]3[C@@H]4CC=C5C[C@@H](O)CC[C@]5(C)[C@H]4CC[C@]3(C)[C@H]2[C@H](C)C(=O)CCC(C)C)OCC(O)C1OC1OCC(O)C(O)C1OC(=O)c1ccc(OC)cc1 (some centres undefined)"
target_or_system = "DU-145 prostate"
sign_qualifier = "="
measurement = 6.12

[[record]]
compound = "Nc1ccc(Oc2ccc(C34CC5CC(C3)CC(c3ccc(Oc6ccc(N)cc6)cc3)(C5)C4)cc2)cc1"
target_or_system = "DU-145 prostate"
sign_qualifier = "="
measurement = 33.3

[[record]]
compound = "CCOC(=O)N[C@H]1CCc2c(Br)c(OC)c(OC)c(OC)c2-c2ccc(SC)c(=O)cc21"
target_or_system = "DU-145 prostate"
sign_qualifier = "="
measurement = 0.125

[[record]]
compound = "CCCCCCCCCCCCCCCC(=O)OC(COC(C)=O)CO[P+](=O)O (centres undefined)"
target_or_system = "DU-145 prostate"
sign_qualifier = ">"
measurement = 100

[[record]]
compound = "COc1ccc(/C=C(/C)[N+](=O)[O-])cc1"
target_or_system = "DU-145 prostate"
sign_qualifier = "="
measurement = 6.26


* * *

A collection of molecules and their measured GI50
tested on: UACC-62 melanoma; experiment: NCI tumour cell line growth inhibition, 48 h
Reported endpoint: GI50

[[record]]
molecule = "CCCCCCC#CC#Cc1cccc(=O)o1"
target_or_system = "UACC-62 melanoma"
reported_endpoint = "GI50"
measurement = "1.45 µM"

[[record]]
molecule = "CCCCCCCCCCCCCC(=O)C(C)N (stereo not given)"
target_or_system = "UACC-62 melanoma"
reported_endpoint = "GI50"
measurement = "3.25 µM"

[[record]]
molecule = "COc1cc(/C=C2\\CN(S(=O)(=O)c3ccccc3)C/C(=C\\c3cc(CN4CCCCC4)c(O)c(OC)c3)C2=O)cc(CN2CCCCC2)c1O"
target_or_system = "UACC-62 melanoma"
reported_endpoint = "GI50"
measurement = "1.65 µM"

[[record]]
molecule = "COC(=O)C1(C2CC/C(C)=C/CC/C(C)=C/CC[C@@]3(C)O[C@@H]3C2)CC1 (stereo not given in full)"
target_or_system = "UACC-62 melanoma"
reported_endpoint = "GI50"
measurement = "> 100 µM"

[[record]]
molecule = "CCN(CC)CCOc1ccc2c(c1)C(=O)c1cc(OCCN(CC)CC)ccc1-2"
target_or_system = "UACC-62 melanoma"
reported_endpoint = "GI50"
measurement = "12.4 µM"


* * *

tested on: MDA-MB-231 breast; assay: NCI tumour cell line growth inhibition, 48 h
Reported endpoint: TGI

[[record]]
compound_structure = "C1=C(c2ccccc2)SC=C(c2ccccc2)S1"
measurement = "> 100 µM"

[[record]]
compound_structure = "Cc1cccc2c1O/C(=C\\c1ccc([N+](=O)[O-])o1)C2=O"
measurement = "3.61 µM"

[[record]]
compound_structure = "CCO/C(O)=C(/C(=N)N1CCCC1)C(=O)Nc1ccc(F)cc1"
measurement = "> 100 µM"

[[record]]
compound_structure = "Cc1nc2cc(Nc3nc(Nc4ccc(F)cc4)nc(N4CCN(C)CC4)n3)ccc2n1Cc1ccccc1"
measurement = "3.36 µM"

[[record]]
compound_structure = "CCSC1=N/C(=C/c2ccccc2O)C(=O)N1"
measurement = "> 100 µM"

[[record]]
compound_structure = "C[C@@H](Oc1ccc2[nH]nc(/C=C/c3cnn(CCO)c3)c2c1)c1c(Cl)cncc1Cl"
measurement = "> 26.5 µM"


* * *

A collection of compounds and their measured TGI
system: NCI-H460 lung; assay: NCI tumour cell line growth inhibition, 48 h
Reported endpoint: TGI

[[record]]
compound = "CC(=O)OC1CCC2(C)C(=CCC3C4CCC5(OC6CC(C)CN(C(C)=O)C6C5C)C(C)=C4C(=O)C32)C1 (stereo not given)"
measurement = "35.1 µM"

[[record]]
compound = "CN(NC(=O)/C(=C\\c1ccco1)NC(=O)c1ccccc1)c1cn[nH]c(=O)c1Cl"
measurement = "> 100 µM"

[[record]]
compound = "Cc1cc(=O)oc2c3c(ccc12)OC(c1ccc(Br)cc1)CC3=O (stereo not given)"
measurement = "36.8 µM"

[[record]]
compound = "CC(=O)C(=[N+]=[N-])C(=O)OCCOC(=O)C(=[N+]=[N-])C(C)=O"
measurement = "> 1 µM"

[[record]]
compound = "OCC#Cc1ccccc1C#Cc1ccc(C#Cc2ccccc2C#CCO)s1"
measurement = "91.5 µM"

[[record]]
compound = "CCCCCC(O)(CCCCC)CCCCCCCCC1=C(O)c2[nH]c(=O)ccc2C(=O)C1=O"
measurement = "24 µM"

[[record]]
compound = "Cc1cc(C)n(C(=O)c2nn(-c3ccc(Cl)cc3)cc2O)n1"
measurement = "6.04 µM"

[[record]]
compound = "CC(/C=N\\NC(=S)N(C)C)=N/NC(=S)N(C)C"
measurement = "> 100 µM"

[[record]]
compound = "Nc1ccc(-c2nc3cc(F)ccc3s2)cc1CO"
measurement = "> 100 µM"

[[record]]
compound = "COC(=O)OCc1ccc2c(c1)C(=O)c1c-2n(CCCBr)c(=O)c2cc([N+](=O)[O-])ccc12"
measurement = "> 100 µM"


* * *

test system: HT29 colon; assay: NCI tumour cell line growth inhibition, 48 h
Reported endpoint: TGI

[[record]]
compound = "Cn1c2ccccc2c(=O)c2c([N+](=O)[O-])ccc(NCCN)c21"
target_or_system = "HT29 colon"
measurement = "17.3 µM"

[[record]]
compound = "COc1ccc(CCNC(=O)CCc2ccccc2CO)cc1OC"
target_or_system = "HT29 colon"
measurement = "> 100 µM"

[[record]]
compound = "CC(=O)NC(CCCNC(=O)NCCCl)C(=O)NCc1ccccc1 (stereo not drawn)"
target_or_system = "HT29 colon"
measurement = "> 100 µM"

